Reported inhibition at 2 µM is given for each of the following molecules.
- tested system: phosphorylated MEK1 (Homo sapiens)
- experiment notes: MEK1 binding assay (HTRF, tracer displacement)
- experimental parameters: read-out: % binding (2 µM)
metric name: inhibition at 2 µM

| smiles code | tested system | metric name | reported |
| --- | --- | --- | --- |
| CCCCC(=O)Oc1ccc2c(CC)c(Cc3ccccc3)c(=O)oc2c1 | phosphorylated MEK1 (Homo sapiens) | inhibition at 2 µM | 37.2% |
| Cc1c(Cc2ccc(F)cc2)c(=O)oc2cc(OS(=O)(=O)c3ccccc3)ccc12 | phosphorylated MEK1 (Homo sapiens) | inhibition at 2 µM | 21.4% |
| Cc1c(Cc2ccccc2)c(=O)oc2cc(OC(=O)c3ccccc3)ccc12 | phosphorylated MEK1 (Homo sapiens) | inhibition at 2 µM | 4.07% |
| CCC(=O)Oc1ccc2c(CC)c(Cc3ccccc3)c(=O)oc2c1 | phosphorylated MEK1 (Homo sapiens) | inhibition at 2 µM | 81% |
| CCCc1c(Cc2ccc(F)cc2)c(=O)oc2cc(OC(=O)CC)ccc12 | phosphorylated MEK1 (Homo sapiens) | inhibition at 2 µM | 72.2% |
| CCc1c(Cc2ccc(F)cc2)c(=O)oc2cc(OS(=O)(=O)c3ccc(C)cc3)ccc12 | phosphorylated MEK1 (Homo sapiens) | inhibition at 2 µM | 33.1% |
| CCCC(=O)Oc1ccc2c(CC)c(Cc3ccc(F)cc3)c(=O)oc2c1 | phosphorylated MEK1 (Homo sapiens) | inhibition at 2 µM | 76.9% |
| CC(=O)Oc1ccc2c(C)c(Cc3ccccc3)c(=O)oc2c1 | phosphorylated MEK1 (Homo sapiens) | inhibition at 2 µM | 72.2% |
| Cc1ccc(S(=O)(=O)Oc2cc3oc(=O)c(Cc4ccccc4)c(C)c3cc2Cl)cc1 | phosphorylated MEK1 (Homo sapiens) | inhibition at 2 µM | 31.7% |

---

- tested system: phosphorylated MEK1 (Homo sapiens, UniProt Q02750)
- Sequence (Q02750 whole entry): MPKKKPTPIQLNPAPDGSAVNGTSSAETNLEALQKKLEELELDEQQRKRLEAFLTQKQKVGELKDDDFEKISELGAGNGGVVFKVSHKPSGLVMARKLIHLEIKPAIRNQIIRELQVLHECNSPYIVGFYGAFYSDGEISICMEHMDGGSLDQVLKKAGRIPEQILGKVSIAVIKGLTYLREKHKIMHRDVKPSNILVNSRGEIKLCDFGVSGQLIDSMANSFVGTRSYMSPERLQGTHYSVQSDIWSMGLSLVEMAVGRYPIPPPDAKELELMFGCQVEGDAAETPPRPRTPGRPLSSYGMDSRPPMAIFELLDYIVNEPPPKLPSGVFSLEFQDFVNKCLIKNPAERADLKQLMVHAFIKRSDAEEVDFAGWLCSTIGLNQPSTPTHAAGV
- experiment notes: MEK1 binding assay (HTRF, tracer displacement)
- experimental parameters: HTRF binding to GST tagged phosphorylated MEK1; read-out: IC50
Could you please mark Met for values of IC50 below 400 nM and Not met for values at or above it?

| smiles code | tested system | class assignment |
| --- | --- | --- |
| CC(=O)Oc1ccc2c(C)c(Cc3ccc(F)cc3)c(=O)oc2c1 | phosphorylated MEK1 (Homo sapiens, UniProt Q02750) | Met |
| CCCC(=O)Oc1ccc2c(C)c(Cc3ccccc3)c(=O)oc2c1 | phosphorylated MEK1 (Homo sapiens, UniProt Q02750) | Met |
| CC(=O)Oc1ccc2c(C)c(Cc3ccccc3)c(=O)oc2c1 | phosphorylated MEK1 (Homo sapiens, UniProt Q02750) | Not met |
| CCCc1c(Cc2ccc(F)cc2)c(=O)oc2cc(OC(C)=O)ccc12 | phosphorylated MEK1 (Homo sapiens, UniProt Q02750) | Met |
| CCCC(=O)Oc1ccc2c(CC)c(Cc3ccccc3)c(=O)oc2c1 | phosphorylated MEK1 (Homo sapiens, UniProt Q02750) | Not met |
| CCCC(=O)Oc1ccc2c(C)c(Cc3ccc(F)cc3)c(=O)oc2c1 | phosphorylated MEK1 (Homo sapiens, UniProt Q02750) | Not met |
| CCCC(=O)Oc1ccc2c(CC)c(Cc3ccc(F)cc3)c(=O)oc2c1 | phosphorylated MEK1 (Homo sapiens, UniProt Q02750) | Not met |
| CCc1c(Cc2ccccc2)c(=O)oc2cc(OC(C)=O)ccc12 | phosphorylated MEK1 (Homo sapiens, UniProt Q02750) | Met |
| CCC(=O)Oc1ccc2c(C)c(Cc3ccccc3)c(=O)oc2c1 | phosphorylated MEK1 (Homo sapiens, UniProt Q02750) | Not met |
| CCCC(=O)Oc1ccc2c(CCC)c(Cc3ccc(F)cc3)c(=O)oc2c1 | phosphorylated MEK1 (Homo sapiens, UniProt Q02750) | Not met |
| CCCc1c(Cc2ccc(F)cc2)c(=O)oc2cc(OC(=O)CC)ccc12 | phosphorylated MEK1 (Homo sapiens, UniProt Q02750) | Met |
| CCC(=O)Oc1cc2oc(=O)c(Cc3ccccc3)c(C)c2cc1Cl | phosphorylated MEK1 (Homo sapiens, UniProt Q02750) | Met |
| CCC(=O)Oc1ccc2c(C)c(Cc3ccc(F)cc3)c(=O)oc2c1 | phosphorylated MEK1 (Homo sapiens, UniProt Q02750) | Met |
| CCC(=O)Oc1ccc2c(CC)c(Cc3ccc(F)cc3)c(=O)oc2c1 | phosphorylated MEK1 (Homo sapiens, UniProt Q02750) | Met |
| CCc1c(Cc2ccc(F)cc2)c(=O)oc2cc(OC(C)=O)ccc12 | phosphorylated MEK1 (Homo sapiens, UniProt Q02750) | Met |

---

- tested system: UniProt:Q02750
- experiment notes: MEK1 binding assay (HTRF, tracer displacement)
- experimental parameters: read-out: % binding (2 µM)
metric name: inhibition at 2 µM (%)

| compound | metric name | reported |
| --- | --- | --- |
| CCCc1c(Cc2ccccc2)c(=O)oc2cc(OC(=O)CC)ccc12 | inhibition at 2 µM | 19.4 |
| CCc1c(Cc2ccccc2)c(=O)oc2cc(O)ccc12 | inhibition at 2 µM | 27 |
| CCCc1c(Cc2ccc(F)cc2)c(=O)oc2cc(OC(=O)N(CC)CC)ccc12 | inhibition at 2 µM | 35.2 |
| Cc1c(Cc2ccccc2)c(=O)oc2cc(OC(=O)c3ccccc3)c(Cl)cc12 | inhibition at 2 µM | 33.3 |
| CCc1c(Cc2ccc(F)cc2)c(=O)oc2cc(OC(C)=O)ccc12 | inhibition at 2 µM | 94.6 |
| CCc1c(Cc2ccc(F)cc2)c(=O)oc2cc(OC(=O)N(CC)CC)ccc12 | inhibition at 2 µM | 25.9 |
| O=C(c1ccccc1)c1cc2ccc(O)cc2oc1=O [Compound 85, 3-Benzoyl-7-hydroxycoumarin] | inhibition at 2 µM | 23 |
| CCCc1c(Cc2ccc(F)cc2)c(=O)oc2cc(OC(C)=O)ccc12 | inhibition at 2 µM | 61.4 |
| CCCC(=O)Oc1ccc2c(C)c(Cc3ccccc3)c(=O)oc2c1 | inhibition at 2 µM | 53.8 |
| CCCc1c(Cc2ccccc2)c(=O)oc2cc(OC(C)=O)ccc12 | inhibition at 2 µM | 15.5 |
| CCCc1c(Cc2ccccc2)c(=O)oc2cc(OS(=O)(=O)c3ccccc3)ccc12 | inhibition at 2 µM | 26 |
| N#Cc1c(C(=O)c2ccccc2)c(=O)oc2cc(O)ccc12 [Compound 87, 3-Benzoyl-4-cyano-7-hydroxycoumarin] | inhibition at 2 µM | 31.9 |
| CCCc1c(Cc2ccc(F)cc2)c(=O)oc2cc(OS(=O)(=O)c3ccccc3)ccc12 | inhibition at 2 µM | 21.6 |
| CCCCC(=O)Oc1ccc2c(CCC)c(Cc3ccc(F)cc3)c(=O)oc2c1 | inhibition at 2 µM | 11.7 |
| CCCC(=O)Oc1ccc2c(C)c(Cc3ccc(F)cc3)c(=O)oc2c1 | inhibition at 2 µM | 45.3 |
| CCCC(=O)Oc1ccc2c(CCC)c(Cc3ccc(F)cc3)c(=O)oc2c1 | inhibition at 2 µM | 57 |
| CCc1c(Cc2ccc(F)cc2)c(=O)oc2cc(OC(=O)N(C)C)ccc12 | inhibition at 2 µM | 98.2 |
| Cc1c(Cc2ccccc2)c(=O)oc2cc(O)c(Cl)cc12 | inhibition at 2 µM | 15.8 |
| CCCc1c(Cc2ccccc2)c(=O)oc2cc(OC(=O)N(C)C)ccc12 | inhibition at 2 µM | 70.9 |
| CCC(=O)Oc1ccc2c(CC)c(Cc3ccc(F)cc3)c(=O)oc2c1 | inhibition at 2 µM | 75.4 |
| CCC(=O)Oc1cc2oc(=O)c(Cc3ccccc3)c(C)c2cc1Cl | inhibition at 2 µM | 70 |
| CCN(CC)C(=O)Oc1ccc2c(C)c(Cc3ccc(F)cc3)c(=O)oc2c1 | inhibition at 2 µM | 22.3 |
| CCCc1c(Cc2ccc(F)cc2)c(=O)oc2cc(OS(=O)(=O)c3ccc(C)cc3)ccc12 | inhibition at 2 µM | 37.5 |
| CCc1c(Cc2ccc(F)cc2)c(=O)oc2cc(O)ccc12 | inhibition at 2 µM | 10.9 |
| CCC(=O)Oc1ccc2c(C)c(Cc3ccc(F)cc3)c(=O)oc2c1 | inhibition at 2 µM | 75.7 |
| CCCc1c(Cc2ccccc2)c(=O)oc2cc(OC(=O)N(CC)CC)ccc12 | inhibition at 2 µM | 43.1 |
| COc1ccc2c(C#N)c(C(=O)c3ccccc3)c(=O)oc2c1 | inhibition at 2 µM | 32.4 |
| CCCCC(=O)Oc1ccc2c(CCC)c(Cc3ccccc3)c(=O)oc2c1 | inhibition at 2 µM | 29.5 |
| CCCCC(=O)Oc1ccc2c(C)c(Cc3ccccc3)c(=O)oc2c1 | inhibition at 2 µM | 18.8 |
| CCc1c(Cc2ccccc2)c(=O)oc2cc(OC(=O)c3ccccc3)ccc12 | inhibition at 2 µM | 10.1 |
| Cc1ccc(S(=O)(=O)Oc2ccc3c(C)c(Cc4ccccc4)c(=O)oc3c2)cc1 | inhibition at 2 µM | 2.87 |
| Cc1c(Cc2ccccc2)c(=O)oc2cc(OS(=O)(=O)c3ccccc3)ccc12 | inhibition at 2 µM | -11.3 |
| CCCc1c(Cc2ccc(F)cc2)c(=O)oc2cc(OC(=O)c3ccccc3)ccc12 | inhibition at 2 µM | 26.1 |
| CCCCC(=O)Oc1ccc2c(C)c(Cc3ccc(F)cc3)c(=O)oc2c1 | inhibition at 2 µM | 34.7 |
| CCCc1c(Cc2ccccc2)c(=O)oc2cc(OC(=O)C(C)(C)C)ccc12 | inhibition at 2 µM | 43.2 |

Where do these numbers come from? They come from paper PMC6269873.
